What follows is a record of IC50 for α-mannosidase from jack bean (Canavalia ensiformis).

Some compounds with known IC50 results, for comparison:
compound="CCCC[C@@H]1CCN2CC3OC(C)(C)O[C@H]3[C@@H]2[C@H]1O (stereo partly shown)" property_name=IC50 reading="> 1000 µM"
compound=CC[C@@H]1C[C@@H](O)[C@@H]2[C@H](O)[C@H](O)CN2C1 property_name=IC50 reading="230 µM"

stdin: I am curious: what IC50 value has been reported for CCCC[C@H]1CCN2C[C@@H](O)[C@@H](O)[C@@H]2[C@H]1O ?
stdout: > 1000 µM

stdin: I am curious: what IC50 value has been reported for CCCC[C@@H]1CCN2C[C@@H](O)[C@@H](O)[C@H]2[C@@H]1O ?
stdout: > 1000 µM

* * *

Listed below: ratio M/L (smaller is better) values for each entry.
# ASSAYED_SYSTEM: lysosomal mannosidase (Homo sapiens)
# Sequence (O00754 50-1011): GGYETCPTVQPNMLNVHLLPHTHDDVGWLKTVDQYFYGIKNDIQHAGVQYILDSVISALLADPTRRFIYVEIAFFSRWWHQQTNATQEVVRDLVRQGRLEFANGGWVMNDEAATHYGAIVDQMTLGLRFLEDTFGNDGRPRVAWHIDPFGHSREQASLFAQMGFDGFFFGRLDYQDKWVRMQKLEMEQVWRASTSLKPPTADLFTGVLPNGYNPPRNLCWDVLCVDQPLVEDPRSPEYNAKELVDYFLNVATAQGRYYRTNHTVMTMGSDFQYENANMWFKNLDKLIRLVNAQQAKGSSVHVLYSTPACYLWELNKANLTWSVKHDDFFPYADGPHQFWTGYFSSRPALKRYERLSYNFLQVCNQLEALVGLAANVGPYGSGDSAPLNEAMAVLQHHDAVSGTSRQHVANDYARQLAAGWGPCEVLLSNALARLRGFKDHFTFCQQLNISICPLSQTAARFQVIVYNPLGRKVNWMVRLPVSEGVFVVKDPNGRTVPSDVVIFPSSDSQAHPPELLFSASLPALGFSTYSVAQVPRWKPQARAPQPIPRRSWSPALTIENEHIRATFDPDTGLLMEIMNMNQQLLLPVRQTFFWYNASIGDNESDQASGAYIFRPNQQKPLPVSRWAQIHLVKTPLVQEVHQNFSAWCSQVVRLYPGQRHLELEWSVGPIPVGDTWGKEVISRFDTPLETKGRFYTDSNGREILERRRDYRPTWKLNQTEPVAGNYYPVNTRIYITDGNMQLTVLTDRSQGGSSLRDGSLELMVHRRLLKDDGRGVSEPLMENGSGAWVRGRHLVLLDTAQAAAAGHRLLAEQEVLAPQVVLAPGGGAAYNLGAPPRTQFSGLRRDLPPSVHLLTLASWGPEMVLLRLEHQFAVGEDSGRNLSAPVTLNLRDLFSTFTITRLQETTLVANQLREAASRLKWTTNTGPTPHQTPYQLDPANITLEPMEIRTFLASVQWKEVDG
# MEASUREMENT_PROTOCOL: Selectivity for inhibition of α-mannosidase II vs. lysosomal mannosidase
# Type: biochemical
# CONDITION_CONTEXT: ratio of activities of α-Mannosidase II/lysosomal mannosidase
A bare number is all that is needed in reply.

Some compounds with known ratio M/L (smaller is better) results, for comparison:
compound="O[C@H]1[C@H]2[C@H](O)C[C@H](CCOCc3ccccc3)CN2C[C@H]1O [Compound 25]" assayed_system="lysosomal mannosidase (Homo sapiens)" reading=0.33
compound="CC[C@H]1C[C@@H](O)[C@@H]2[C@H](O)[C@H](O)CN2C1 [Compound 24]" assayed_system="lysosomal mannosidase (Homo sapiens)" reading=0.2
compound="CCCC[C@@H]1CCN2C[C@@H](O)[C@@H](O)[C@H]2[C@@H]1O [Compound 52]" assayed_system="lysosomal mannosidase (Homo sapiens)" reading=0.02

stdin: Form: Entry = CC[C@@H]1C[C@@H](O)[C@@H]2[C@H](O)[C@H](O)CN2C1 [Compound 26] | System = lysosomal mannosidase (Homo sapiens) | ratio M/L (smaller is better) = ____
stdout: 0.47

* * *

What follows is a record of pIC50 for α-mannosidase from jack bean (Canavalia ensiformis, UniProt C0HJB3).
Reminder that pIC50 is minus the log10 of a molar concentration.

Some compounds with known pIC50 results, for comparison:
compound="O[C@@H]1[C@H](CCOCc2ccccc2)CCN2C[C@@H](O)[C@@H](O)[C@@H]12 [Compound 53]" property_name=pIC50 reading=3.05
compound="O[C@H]1[C@H]2[C@H](O)C[C@@H](CCOCc3ccccc3)CN2C[C@H]1O [Compound 27]" property_name=pIC50 reading=3.56
compound="O[C@H]1[C@H]2[C@H](O)C[C@H](CCOCc3ccccc3)CN2C[C@H]1O [Compound 25]" property_name=pIC50 reading=4.15

Proceeding to the next compound to report its pIC50.
stdin: Form: Entry = CC[C@H]1C[C@@H](O)[C@@H]2[C@H](O)[C@H](O)CN2C1 [Compound 24] | System = α-mannosidase from jack bean (Canavalia ensiformis, UniProt C0HJB3) | pIC50 = ____
stdout: 4.52

* * *

# ASSAYED_SYSTEM: α-mannosidase from jack bean (Canavalia ensiformis, UniProt C0HJB3)
# Sequence (C0HJB3 whole entry): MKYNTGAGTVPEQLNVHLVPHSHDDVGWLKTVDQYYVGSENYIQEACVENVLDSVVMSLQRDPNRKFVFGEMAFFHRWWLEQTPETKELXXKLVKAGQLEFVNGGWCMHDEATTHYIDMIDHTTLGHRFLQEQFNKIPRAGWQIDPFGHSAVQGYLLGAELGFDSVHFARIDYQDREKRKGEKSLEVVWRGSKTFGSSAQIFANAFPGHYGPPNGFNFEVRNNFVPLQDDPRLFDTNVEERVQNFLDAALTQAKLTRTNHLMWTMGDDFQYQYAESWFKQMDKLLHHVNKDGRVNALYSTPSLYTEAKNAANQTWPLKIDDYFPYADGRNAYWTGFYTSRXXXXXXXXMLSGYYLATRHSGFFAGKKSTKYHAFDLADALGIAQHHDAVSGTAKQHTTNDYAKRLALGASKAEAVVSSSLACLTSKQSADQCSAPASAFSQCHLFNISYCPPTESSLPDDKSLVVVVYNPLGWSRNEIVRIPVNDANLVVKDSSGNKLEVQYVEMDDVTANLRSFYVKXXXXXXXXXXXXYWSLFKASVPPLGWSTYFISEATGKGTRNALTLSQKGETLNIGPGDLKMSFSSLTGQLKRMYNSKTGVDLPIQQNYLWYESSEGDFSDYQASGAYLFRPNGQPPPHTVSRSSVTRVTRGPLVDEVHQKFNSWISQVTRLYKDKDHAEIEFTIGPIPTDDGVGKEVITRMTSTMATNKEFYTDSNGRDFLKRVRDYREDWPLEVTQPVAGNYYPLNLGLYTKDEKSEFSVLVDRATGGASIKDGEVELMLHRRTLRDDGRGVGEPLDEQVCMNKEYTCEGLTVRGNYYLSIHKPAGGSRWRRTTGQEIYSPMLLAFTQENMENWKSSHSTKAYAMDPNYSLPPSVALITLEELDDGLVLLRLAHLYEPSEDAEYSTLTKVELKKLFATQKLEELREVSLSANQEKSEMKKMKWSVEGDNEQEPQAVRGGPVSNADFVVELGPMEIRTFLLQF
pIC50: −log10 of the molar value.
PROPERTY_NAME: pIC50

Some compounds with known pIC50 results, for comparison:
compound="CC1(C)OC2CN3CC[C@@H](CCOCc4ccccc4)[C@H](O)[C@H]3[C@@H]2O1 (stereo partly shown)" property_name=pIC50 reading="< 3.00"
compound=O[C@H]1[C@@H](CCOCc2ccccc2)CCN2C[C@@H](O)[C@@H](O)[C@H]12 property_name=pIC50 reading="< 3.00"
compound=CCCC[C@@H]1CCN2C[C@@H](O)[C@@H](O)[C@@H]2[C@H]1O property_name=pIC50 reading="< 3.00"

stdin: I am curious: what pIC50 value has been reported for O[C@H]1[C@H](CCOCc2ccccc2)CCN2C[C@@H](O)[C@@H](O)[C@H]12 ?
stdout: < 3.00
